Measured recombinant UMI read abundance (log10) values are reported for all entries that follow.
Test: recombinant UMI read abundance after kanamycin selection (control-corrected) (log10(CPM+1)); higher = more efficient recombination; extreme values may be limits of the assay; sequences stand for … in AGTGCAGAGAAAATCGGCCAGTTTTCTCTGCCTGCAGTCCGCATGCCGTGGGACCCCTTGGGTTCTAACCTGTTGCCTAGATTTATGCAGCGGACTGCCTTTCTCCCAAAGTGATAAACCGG…AGGTTGGTTTCACT; site = the 11-nt donor;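 also: IS621 bridge recombinase in Escherichia coli cells against a fixed T5 target plasmid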
observed_property: recombinant UMI read abundance (log10)

>>> df
                               sequence_data  meas_value
 0  CTAGCGCCATGGACCGGTTTTCCCGGTAATCCGTATTTGTG (site CTAGCGCCTCA)       0.446
 1  TTTCACACATGGACCGGTTTTCCCGGTAATCCGTATTTGGA (site TTTCACACTTC)      0.0104
 2  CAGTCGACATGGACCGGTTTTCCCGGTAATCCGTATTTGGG (site CAGTCGACTCT)       0.314
 3  TAGCCTACATGGACCGGTTTTCCCGGTAATCCGTATTTGGT (site TAGCCTCCTAC)      0.0181
 4  CTGGTATCATGGACCGGTTTTCCCGGTAATCCGTATTTGAA (site CTAGTATCTGT)        2.25
 5  TTGCCTTCATGGACCGGTTTTCCCGGTAATCCGTATTTGGT (site TTGCCTTCTAC)     0.00638
 6  TTAATTTCATGGACCGGTTTTCCCGGTAATCCGTATTTGCA (site TTAATTTCTTG)        0.69
 7  TACTTCACATGGACCGGTTTTCCCGGTAATCCGTATTTGCT (site TACTTAACTAG)      0.0118
 8  CATTTGGCATGGACCGGTTTTCCCGGTAATCCGTATTTGGA (site CACTTGGCTTC)       0.438
 9  GTCGTTCCATGGACCGGTTTTCCCGGTAATCCGTATTTGGT (site GTCGTTCCTAC)      0.0042
10  CCTAAACCATGGACCGGTTTTCCCGGTAATCCGTATTTGAT (site CCTAAAACTAT)           0
11  TCCATAGCATGGACCGGTTTTCCCGGTAATCCGTATTTGTA (site TCCATAGCTTA)      0.0478
12  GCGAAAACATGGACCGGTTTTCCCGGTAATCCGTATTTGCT (site GCGAAAACTAT)     0.00596
13  CGAGGACCATGGACCGGTTTTCCCGGTAATCCGTATTTGTG (site CGAGGACCTCT)      0.0187
14  CGGTCTTCATGGACCGGTTTTCCCGGTAATCCGTATTTGCT (site CGATCATCTAG)           0
15  ACTAGAGCATGGACCGGTTTTCCCGGTAATCCGTATTTGGT (site ACTAGAGCTAC)        1.72
16  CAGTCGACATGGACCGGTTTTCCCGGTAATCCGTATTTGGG (site CAGTCGACTCA)     0.00973
17  TGCATTCCATGGACCGGTTTTCCCGGTAATCCGTATTTGTT (site TGCATTCCTAA)           0

Ref: the supplement of paper PMC11208160
